- ASSAYED TARGET: human MDR1 (P-gp) (Homo sapiens, UniProt P08183)
- Construct: expressed in transfected cells; host or cells: MDCKII (Madin-Darby canine kidney) cells
- Sequence (P08183 whole entry): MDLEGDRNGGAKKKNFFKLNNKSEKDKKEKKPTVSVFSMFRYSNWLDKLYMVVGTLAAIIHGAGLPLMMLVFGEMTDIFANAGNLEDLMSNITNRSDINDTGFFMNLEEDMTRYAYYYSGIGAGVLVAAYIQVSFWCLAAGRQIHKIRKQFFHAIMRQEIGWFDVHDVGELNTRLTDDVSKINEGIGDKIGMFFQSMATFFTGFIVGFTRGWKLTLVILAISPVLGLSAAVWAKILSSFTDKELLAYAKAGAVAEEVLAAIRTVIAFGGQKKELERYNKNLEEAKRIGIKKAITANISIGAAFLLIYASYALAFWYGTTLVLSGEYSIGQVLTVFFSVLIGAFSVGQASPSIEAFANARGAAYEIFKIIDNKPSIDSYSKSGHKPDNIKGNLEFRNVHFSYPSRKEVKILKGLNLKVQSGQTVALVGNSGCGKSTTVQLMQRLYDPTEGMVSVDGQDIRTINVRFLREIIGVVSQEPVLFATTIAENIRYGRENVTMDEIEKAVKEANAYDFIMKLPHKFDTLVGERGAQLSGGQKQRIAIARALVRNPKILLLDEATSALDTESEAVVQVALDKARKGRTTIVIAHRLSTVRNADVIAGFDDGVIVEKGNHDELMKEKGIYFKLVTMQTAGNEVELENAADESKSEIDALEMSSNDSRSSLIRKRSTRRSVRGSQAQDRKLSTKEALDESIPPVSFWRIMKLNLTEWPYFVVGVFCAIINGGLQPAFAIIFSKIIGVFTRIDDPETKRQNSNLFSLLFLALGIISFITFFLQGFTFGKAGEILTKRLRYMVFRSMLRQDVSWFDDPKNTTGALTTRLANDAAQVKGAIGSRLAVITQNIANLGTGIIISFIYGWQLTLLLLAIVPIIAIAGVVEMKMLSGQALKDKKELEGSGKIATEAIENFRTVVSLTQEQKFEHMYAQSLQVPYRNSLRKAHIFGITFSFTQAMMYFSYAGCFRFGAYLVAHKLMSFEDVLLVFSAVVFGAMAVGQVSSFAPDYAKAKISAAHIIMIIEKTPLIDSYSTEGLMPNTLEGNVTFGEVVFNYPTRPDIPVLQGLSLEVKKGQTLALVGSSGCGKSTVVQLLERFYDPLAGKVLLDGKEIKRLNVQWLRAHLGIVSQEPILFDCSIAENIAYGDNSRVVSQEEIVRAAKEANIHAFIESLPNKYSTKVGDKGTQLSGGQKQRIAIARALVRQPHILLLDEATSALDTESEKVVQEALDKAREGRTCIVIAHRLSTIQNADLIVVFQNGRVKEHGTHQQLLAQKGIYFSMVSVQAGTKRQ
- ASSAY TEXT: MDCK assay MDR-1 (p-GP): permeability across MDCK-MDR1 monolayers
- Format: in vitro ADME
- EXPERIMENTAL CONTEXT: MDCK-MDR1 monolayers, apical-to-basal, pH 7.4, 1 or 10 μM
Rule: Papp A→B below 40 ×10⁻⁶ cm/s gives true (1). Equal to or above 40 ×10⁻⁶ cm/s gives false (0).

(Q) Bench note: check whether "O=C(OCc1cccc(F)c1)N1CCO[C@H](c2nc3cccnc3[nH]2)C1" shows Papp A→B below 40 ×10⁻⁶ cm/s
(A) false (0)

(Q) Bench note: check whether "O=C(OCc1ccc(F)cc1Cl)N1CCO[C@H](c2nc3cccnc3[nH]2)C1" shows Papp A→B below 40 ×10⁻⁶ cm/s
(A) true (1)

(Q) Bench note: check whether "Cc1ccc(COC(=O)N2CCO[C@H](c3nc4cccnc4[nH]3)C2)cc1" shows Papp A→B below 40 ×10⁻⁶ cm/s
(A) true (1)

(Q) Bench note: check whether "Cc1ccc(COC(=O)N2CCO[C@H](c3nc4cccnc4[nH]3)C2)c(F)c1" shows Papp A→B below 40 ×10⁻⁶ cm/s
(A) true (1)

(Q) Bench note: check whether "Cc1ccc(COC(=O)N2CCO[C@H](c3nc4cc(F)cnc4[nH]3)C2)cc1" shows Papp A→B below 40 ×10⁻⁶ cm/s
(A) true (1)

(Q) Bench note: check whether "O=C(OCc1cccc(F)c1F)N1CCO[C@H](c2nc3cccnc3[nH]2)C1" shows Papp A→B below 40 ×10⁻⁶ cm/s
(A) false (0)

(Q) Bench note: check whether "O=C(OCc1ccccc1F)N1CCO[C@H](c2nc3cccnc3[nH]2)C1" shows Papp A→B below 40 ×10⁻⁶ cm/s
(A) false (0)

(Q) Bench note: check whether "Cc1cccc(COC(=O)N2CCO[C@H](c3nc4cccnc4[nH]3)C2)c1" shows Papp A→B below 40 ×10⁻⁶ cm/s
(A) false (0)

###

Kindly supply the reported efflux ratio values for the records listed here.
- ASSAYED TARGET: human MDR1 (P-gp) (Homo sapiens, UniProt P08183)
- Construct: expressed in transfected cells; host or cells: MDCKII (Madin-Darby canine kidney) cells
- ASSAY TEXT: MDCK assay MDR-1 (p-GP): permeability across MDCK-MDR1 monolayers
- Assay type: in vitro ADME
- EXPERIMENTAL CONTEXT: pH 7.4, MDCK-MDR1, Papp (b-a) divided by Papp (a-b)
Please give the numeric answer without any surrounding text.

(Q) Specify reported efflux ratio for the compound shown: "O=C(OCc1cccc(F)c1)N1CCO[C@H](c2nc3cccnc3[nH]2)C1"
(A) 0.9

(Q) Specify reported efflux ratio for the compound shown: "Cc1ccc(COC(=O)N2CCO[C@H](c3nc4cc(F)cnc4[nH]3)C2)cc1"
(A) 1.8

(Q) Specify reported efflux ratio for the compound shown: "O=C(OCc1c(F)cccc1F)N1CCO[C@H](c2nc3cccnc3[nH]2)C1"
(A) 1.2

(Q) Specify reported efflux ratio for the compound shown: "O=C(OCc1ccc(F)cc1Cl)N1CCO[C@H](c2nc3cccnc3[nH]2)C1"
(A) 1.3

(Q) Specify reported efflux ratio for the compound shown: "O=C(OCc1ccc(F)cc1F)N1CCO[C@H](c2nc3cccnc3[nH]2)C1"
(A) 1.6

Origin of measurements: patent US10849907B2
